test system: Thymocyte; assay: Cytotoxicity against rat thymocytes assessed as cell survival after 24 hrs by trypan blue exclusion assay; type: cell-based
pIC50: −log10 of the molar value.
We begin with a simple list: items and their reported pIC50.
Endpoint Label: pIC50

>>> df
                                   compound  bound_type  numeric_result
0  COc1ccccc1CNCCCCCCNCCCCCCCCNCCCCCCNCc1ccccc1OC [METHOCTRAMINE]           <            4.00
1  c1ccc(C(CNCCCCCCNCCCCCCCCCCCCNCCCCCCNCC(c2ccccc2)c2ccccc2)c2ccccc2)cc1           =            5.17
2  COc1ccccc1CNCCCCCCNCCCCCCCCCCCCNCCCCCCNCc1ccccc1OC           <            4.00
3  c1ccc(C(CNCCCCCCNCCCCCCCCNCCCCCCNCC(c2ccccc2)c2ccccc2)c2ccccc2)cc1           =            4.09

* * *

system: SAOS-2; assay: Cytotoxicity against human p53-deficient Saos2 cells assessed as cell survival after 48 hrs by trypan blue exclusion assay; type: functional, cell-based; details: SAOS-2, 48 h
Endpoint Label: IC50 (nM)

>>> df
                                        smi  endpoint_label  numeric_result
0  c1ccc(C(CNCCCCCCNCCCCCCCCCCCCNCCCCCCNCC(c2ccccc2)c2ccccc2)c2ccccc2)cc1            IC50             300

* * *

assay: Cytotoxicity against human C-28/I2 cells assessed as cell survival after 24 hrs by trypan blue exclusion assay; type: cell-based; settings: C28/I2, 24 h
pIC50: −log10 of the molar value.
We begin with a simple list: items and their reported pIC50.
Endpoint Label: pIC50

>>> print(df.to_string())
                                   compound  endpoint_label  bound_type  numeric_result
0  COc1ccccc1CNCCCCCCNCCCCCCCCCCCCNCCCCCCNCc1ccccc1OC           pIC50           =            4.11
1  c1ccc(C(CNCCCCCCNCCCCCCCCCCCCNCCCCCCNCC(c2ccccc2)c2ccccc2)c2ccccc2)cc1           pIC50           =            5.37
2  COc1ccccc1CNCCCCCCNCCCCCCCCNCCCCCCNCc1ccccc1OC [METHOCTRAMINE]           pIC50           <            4.00
3  c1ccc(C(CNCCCCCCNCCCCCCCCNCCCCCCNCC(c2ccccc2)c2ccccc2)c2ccccc2)cc1           pIC50           =            4.22
